Source listed as patent US20250276964A1.

Molecular target: WIZ (Homo sapiens, UniProt O95785+Q96SW2)
Construct: expressed in transfected cells
Sequence (O95785 whole entry): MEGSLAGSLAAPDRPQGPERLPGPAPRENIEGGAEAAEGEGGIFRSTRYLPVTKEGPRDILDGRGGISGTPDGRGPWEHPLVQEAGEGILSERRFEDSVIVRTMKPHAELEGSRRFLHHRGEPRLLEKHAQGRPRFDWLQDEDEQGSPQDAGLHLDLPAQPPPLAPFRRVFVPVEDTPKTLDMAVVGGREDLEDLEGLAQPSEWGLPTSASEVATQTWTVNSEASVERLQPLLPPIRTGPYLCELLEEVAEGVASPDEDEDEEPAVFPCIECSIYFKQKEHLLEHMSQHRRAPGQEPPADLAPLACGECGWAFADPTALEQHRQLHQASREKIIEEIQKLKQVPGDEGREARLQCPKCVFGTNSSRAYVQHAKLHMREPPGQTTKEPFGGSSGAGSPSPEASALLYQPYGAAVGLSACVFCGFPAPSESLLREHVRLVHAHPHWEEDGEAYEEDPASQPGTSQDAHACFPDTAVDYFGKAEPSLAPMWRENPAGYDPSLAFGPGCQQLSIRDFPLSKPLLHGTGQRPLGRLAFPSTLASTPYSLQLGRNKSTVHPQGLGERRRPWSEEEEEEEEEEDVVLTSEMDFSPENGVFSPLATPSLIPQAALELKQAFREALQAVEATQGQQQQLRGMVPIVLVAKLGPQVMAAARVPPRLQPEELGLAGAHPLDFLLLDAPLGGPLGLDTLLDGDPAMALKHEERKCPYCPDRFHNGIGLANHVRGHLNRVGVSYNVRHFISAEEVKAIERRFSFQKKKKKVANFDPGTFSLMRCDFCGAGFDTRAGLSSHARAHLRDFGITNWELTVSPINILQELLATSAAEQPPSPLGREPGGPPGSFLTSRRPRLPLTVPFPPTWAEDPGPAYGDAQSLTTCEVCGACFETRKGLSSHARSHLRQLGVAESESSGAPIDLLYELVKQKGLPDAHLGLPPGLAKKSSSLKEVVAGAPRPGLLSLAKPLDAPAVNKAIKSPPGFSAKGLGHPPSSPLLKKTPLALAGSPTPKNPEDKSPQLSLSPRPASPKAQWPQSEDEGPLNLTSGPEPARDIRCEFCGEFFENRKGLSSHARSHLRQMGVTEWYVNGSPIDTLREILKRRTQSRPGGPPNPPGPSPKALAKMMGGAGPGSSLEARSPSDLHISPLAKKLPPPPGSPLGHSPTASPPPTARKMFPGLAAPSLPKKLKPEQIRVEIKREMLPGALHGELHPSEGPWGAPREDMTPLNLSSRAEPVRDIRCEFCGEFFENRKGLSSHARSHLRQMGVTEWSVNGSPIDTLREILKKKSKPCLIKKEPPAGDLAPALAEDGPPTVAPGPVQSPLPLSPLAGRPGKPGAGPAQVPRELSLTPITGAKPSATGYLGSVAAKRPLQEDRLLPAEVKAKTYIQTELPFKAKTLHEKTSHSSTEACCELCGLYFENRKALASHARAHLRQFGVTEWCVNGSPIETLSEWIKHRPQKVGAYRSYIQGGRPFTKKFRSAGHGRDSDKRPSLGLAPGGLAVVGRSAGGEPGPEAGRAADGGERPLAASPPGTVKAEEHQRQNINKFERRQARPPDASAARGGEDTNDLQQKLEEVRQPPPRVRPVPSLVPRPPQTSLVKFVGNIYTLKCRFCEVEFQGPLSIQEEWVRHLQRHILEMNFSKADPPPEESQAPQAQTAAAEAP
Sequence (Q96SW2 whole entry): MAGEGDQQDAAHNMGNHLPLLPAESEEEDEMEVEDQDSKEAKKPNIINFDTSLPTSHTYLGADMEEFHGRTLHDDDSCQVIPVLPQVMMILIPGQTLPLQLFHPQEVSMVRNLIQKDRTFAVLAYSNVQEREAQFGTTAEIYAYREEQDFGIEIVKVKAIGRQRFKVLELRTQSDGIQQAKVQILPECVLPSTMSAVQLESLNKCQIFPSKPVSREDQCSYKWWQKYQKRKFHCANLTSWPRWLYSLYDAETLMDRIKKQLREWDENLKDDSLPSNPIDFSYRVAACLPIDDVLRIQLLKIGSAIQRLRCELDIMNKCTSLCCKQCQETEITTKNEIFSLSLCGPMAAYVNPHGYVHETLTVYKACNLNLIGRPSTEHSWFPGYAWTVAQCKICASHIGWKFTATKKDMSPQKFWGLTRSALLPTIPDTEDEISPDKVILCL
Sequence (Q16531 whole entry partner): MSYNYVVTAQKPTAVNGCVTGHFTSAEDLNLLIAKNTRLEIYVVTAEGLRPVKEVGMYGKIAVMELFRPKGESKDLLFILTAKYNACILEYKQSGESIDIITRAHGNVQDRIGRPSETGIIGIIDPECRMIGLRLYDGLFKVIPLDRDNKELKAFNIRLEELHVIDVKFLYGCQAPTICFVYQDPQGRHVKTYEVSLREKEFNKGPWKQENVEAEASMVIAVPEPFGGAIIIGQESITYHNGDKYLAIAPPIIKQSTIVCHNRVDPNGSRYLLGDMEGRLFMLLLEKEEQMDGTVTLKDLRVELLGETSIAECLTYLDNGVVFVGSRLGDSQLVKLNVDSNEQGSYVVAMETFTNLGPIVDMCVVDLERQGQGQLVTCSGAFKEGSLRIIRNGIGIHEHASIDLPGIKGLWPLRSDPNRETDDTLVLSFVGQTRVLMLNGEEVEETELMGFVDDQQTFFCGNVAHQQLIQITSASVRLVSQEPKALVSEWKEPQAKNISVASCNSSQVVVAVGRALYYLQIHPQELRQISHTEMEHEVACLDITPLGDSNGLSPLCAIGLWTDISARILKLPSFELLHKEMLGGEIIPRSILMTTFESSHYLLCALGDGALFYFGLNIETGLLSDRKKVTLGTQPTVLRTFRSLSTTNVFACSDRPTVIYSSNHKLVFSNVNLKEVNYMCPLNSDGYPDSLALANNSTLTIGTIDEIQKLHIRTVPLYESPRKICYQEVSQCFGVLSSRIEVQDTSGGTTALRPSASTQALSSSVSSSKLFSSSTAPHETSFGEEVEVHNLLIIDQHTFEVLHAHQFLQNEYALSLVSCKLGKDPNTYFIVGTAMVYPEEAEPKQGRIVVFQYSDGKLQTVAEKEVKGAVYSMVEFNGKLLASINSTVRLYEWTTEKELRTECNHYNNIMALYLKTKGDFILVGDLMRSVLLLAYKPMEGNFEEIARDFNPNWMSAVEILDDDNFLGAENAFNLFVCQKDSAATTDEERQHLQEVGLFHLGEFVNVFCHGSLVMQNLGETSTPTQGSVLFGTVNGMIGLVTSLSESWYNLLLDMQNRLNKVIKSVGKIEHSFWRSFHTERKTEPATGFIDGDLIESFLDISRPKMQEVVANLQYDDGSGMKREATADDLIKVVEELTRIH
Assay: Quantification of WIZ protein levels in HiBit tag fusion protein assay (WIZ HiBit assay in 293T cells)
Assay type: cell-based
Settings: HEK-293T, DMSO-normalized, curve-fitted percentage of WIZ-HiBit remaining at 25 uM; read-out: WIZ Amax
In this section, each of the molecules is paired with its reported remaining activity at 25 µM.

molecule	remaining activity at 25 µM [%]
C[C@H]1CN(Cc2ccc3onc(N4CCC(=O)NC4=O)c3c2)CCN1C	11
Cc1c(CN2CCN(CC(C)C)[C@@H](C)C2)ccc2onc(N3CCC(=O)NC3=O)c12	12
CCN1CCC(Cc2ccc3onc(N4CCC(=O)NC4=O)c3c2)CC1	9
CN1CCCC(Cc2ccc3onc(N4CCC(=O)NC4=O)c3c2)CC1 (stereo not shown)	13
CC(C)[C@H]1CN(Cc2ccc3onc(N4CCC(=O)NC4=O)c3c2)CCN1C	20
O=C1CCN(c2noc3ccc(CC4CCN(CC5CCCCC5)CC4)cc23)C(=O)N1	9
O=C1CCN(c2noc3ccc(CC4CCN(Cc5ccccc5)CC4)cc23)C(=O)N1	9
O=C1CCN(c2noc3ccc(CN4CCN(CC5CCOCC5)CC4)cc23)C(=O)N1	9
CC(C)(C)OC(=O)N1CCCC(Cc2ccc3onc(N4CCC(=O)NC4=O)c3c2)CC1 (stereo not shown)	13
CN1CCN(Cc2ccc3onc(N4CCC(=O)NC4=O)c3c2)CC1(C)C	18
O=C1CCN(c2noc3ccc(CN4CCN(Cc5cccc(F)c5)CC4)cc23)C(=O)N1	14
O=C1CCN(c2noc3ccc(CC4CCN(CC5CC5)CC4)cc23)C(=O)N1	9
C[C@H]1CN(Cc2ccc3onc(N4CCC(=O)NC4=O)c3c2)CCN1CC1CCCCC1	10
CN1C[C@@H]2C[C@H]1CN2Cc1ccc2onc(N3CCC(=O)NC3=O)c2c1	24
CC(C)[C@H]1CN(Cc2ccc3onc(N4CCC(=O)NC4=O)c3c2)CCN1CC1CCOCC1	24
O=C1CCN(c2noc3ccc(CN4CCN(CC5CCCCC5)CC4)cc23)C(=O)N1	10
CC(C)CN1CCN(Cc2ccc3onc(N4CCC(=O)NC4=O)c3c2)[C@H](C(C)C)C1	15
CN1CCCC(Cc2ccc3onc(N4CCC(=O)NC4=O)c3c2)C1 (stereo not shown)	23
C[C@@H]1CN(C2CCOCC2)CCN1Cc1ccc2onc(N3CCC(=O)NC3=O)c2c1	20
C[C@@H]1CN(C)C[C@H](C)N1Cc1ccc2onc(N3CCC(=O)NC3=O)c2c1	31
CCS(=O)(=O)N1CCN(Cc2ccc3onc(N4CCC(=O)NC4=O)c3c2)[C@H](C)C1	19
O=C1CCN(c2noc3ccc(CC4CCN(Cc5cccnc5)CC4)cc23)C(=O)N1	8
O=C1CCN(c2noc3ccc(CC4CCCN(CC5CCCCC5)C4)cc23)C(=O)N1 (stereo not shown)	23
C[C@@H]1CN(CC(=O)N2CCCCC2)CCN1Cc1ccc2onc(N3CCC(=O)NC3=O)c2c1	22
CC(C)[C@@H]1CN(C)CCN1Cc1ccc2onc(N3CCC(=O)NC3=O)c2c1	17
O=C1CCN(c2noc3ccc(CC4CCN(CC5CCCCC5)C4)cc23)C(=O)N1 (stereo not shown)	13
CN1CCCN(Cc2ccc3onc(N4CCC(=O)NC4=O)c3c2)CC1	16
CC(C)CN1CCN(Cc2ccc3onc(N4CCC(=O)NC4=O)c3c2)CC1=O	34
CC(C)S(=O)(=O)N1CCN(Cc2ccc3onc(N4CCC(=O)NC4=O)c3c2)[C@H](C)C1	17
CC(=O)N1CCN(Cc2ccc3onc(N4CCC(=O)NC4=O)c3c2)[C@H](C)C1	25
CC(C)CN1CCCC(Cc2ccc3onc(N4CCC(=O)NC4=O)c3c2)C1 (stereo not shown)	23
CN1[C@@H]2CC[C@H]1CN(Cc1ccc3onc(N4CCC(=O)NC4=O)c3c1)C2	22
CN1[C@@H]2CC[C@H]1CC(Cc1ccc3onc(N4CCC(=O)NC4=O)c3c1)C2 (stereo partly shown)	11
CN1CC2CCC1CN2Cc1ccc2onc(N3CCC(=O)NC3=O)c2c1 (single isomer, unassigned)	11

====

Target: WIZ (Homo sapiens, UniProt O95785+Q96SW2)
Construct: expressed in transfected cells
Test: Quantification of WIZ protein levels in HiBit tag fusion protein assay (WIZ HiBit assay in 293T cells)
Assay type: cell-based
Details: HEK-293T, 100 minus Amax at 25 uM; read-out: % degradation of WIZ (100-Amax)
Structures can show the parent of a compound that is named as a salt.

molecule	Dmax at 25 µM
O=C1CCN(c2noc3ccc(CC4CCN(Cc5cccnc5)CC4)cc23)C(=O)N1 [Example 4]	92%
O=C1CCN(c2noc3ccc(CN4CCN(C5CC5)CC4)cc23)C(=O)N1 [Example 119]	86%
CC(C)S(=O)(=O)N1CCN(Cc2ccc3onc(N4CCC(=O)NC4=O)c3c2)[C@H](C)C1 [Example 73]	83%
O=C1CCN(c2noc3ccc(CN4CC5CCC4CN5CC4CCOCC4)cc23)C(=O)N1 (single isomer, unassigned) [Example 121]	86%
O=C1CCN(c2noc3ccc(CC4CCN(CCC5CCCCC5)CC4)cc23)C(=O)N1 [Example 11]	90%
O=C1CCN(c2noc3ccc(CC4CCN(CC5CCC(F)(F)CC5)CC4)cc23)C(=O)N1 [Example 2]	92%
C[C@@H]1CN(C(=O)N2CCCC2)CCN1Cc1ccc2onc(N3CCC(=O)NC3=O)c2c1 [Example 75]	78%
C[C@H]1CN(Cc2ccc3onc(N4CCC(=O)NC4=O)c3c2)CCN1CC1CCOCC1 [Example 31]	91%
O=C1CCN(c2noc3ccc(CC4CCCNCC4)cc23)C(=O)N1 (stereo not drawn) [Example 52]	86%
CN1[C@@H]2CC[C@H]1CC(Cc1ccc3onc(N4CCC(=O)NC4=O)c3c1)C2 (stereo partly drawn) [Example 58]	89%
O=C1CCN(c2noc3ccc(CN4CCN(CC5CCCCC5)CC4)cc23)C(=O)N1 [Example 21]	90%
CC(C)CN1CCN(Cc2ccc3onc(N4CCC(=O)NC4=O)c3c2)CC1=O [Example 113]	66%
C[C@H]1CN(Cc2ccc3onc(N4CCC(=O)NC4=O)c3c2)CCN1C [Example 29]	89%
CC(C)S(=O)(=O)N1CCC(Cc2ccc3onc(N4CCC(=O)NC4=O)c3c2)CC1 [Example 14]	90%
O=C1CCN(c2noc3ccc(CN4C[C@@H]5C[C@H]4CN5CC4CCOCC4)cc23)C(=O)N1 [Example 95]	82%
CC[C@@H]1CN(CC(C)C)CCN1Cc1ccc2onc(N3CCC(=O)NC3=O)c2c1 [Example 88]	85%
O=C1CCN(c2noc3ccc(CC4CCN(CC5CCCCC5)CC4)cc23)C(=O)N1 [Example 1]	91%
CS(=O)(=O)N1CC2CCC1CN2Cc1ccc2onc(N3CCC(=O)NC3=O)c2c1 (single isomer, unassigned) [Example 125]	85%
O=C1CCN(c2noc3ccc(CN4CCN5CCOC[C@@H]5C4)cc23)C(=O)N1 [Example 111]	85%
O=C1CCN(c2noc3ccc(CN4C[C@H]5CC[C@@H](C4)N5)cc23)C(=O)N1 [Example 100]	76%
Cc1ccccc1CN1CCC(Cc2ccc3onc(N4CCC(=O)NC4=O)c3c2)CC1 [Example 12]	90%
O=C1CCN(c2noc3ccc(CN4CCN(CC5CCOCC5)CC4)cc23)C(=O)N1 [Example 23]	91%
C[C@@H]1CN(C)CCN1Cc1ccc2onc(N3CCC(=O)NC3=O)c2c1 [Example 65]	84%
CCS(=O)(=O)N1CCN(Cc2ccc3onc(N4CCC(=O)NC4=O)c3c2)[C@H](C)C1 [Example 72]	81%
CC(C)(C)OC(=O)N1CCCC(Cc2ccc3onc(N4CCC(=O)NC4=O)c3c2)C1 (stereo not drawn) [Example 42]	82%
CN1CCN(Cc2ccc3onc(N4CCC(=O)NC4=O)c3c2)CC1(C)C [Example 92]	82%
O=C1CCN(c2noc3ccc(CC4CCNCC4)cc23)C(=O)N1 [Example 1b, hydrochloride]	88%
O=C1CCN(c2noc3ccc(CN4C[C@H]5C[C@@H]4CN5CC4CCOCC4)cc23)C(=O)N1 [Example 98]	81%
CN1CCCC(Cc2ccc3onc(N4CCC(=O)NC4=O)c3c2)CC1 (stereo not drawn) [Example 53]	87%
CN1[C@@H]2CC[C@H]1CN(Cc1ccc3onc(N4CCC(=O)NC4=O)c3c1)C2 [Example 101]	78%
CC(C)CN1CCCC(Cc2ccc3onc(N4CCC(=O)NC4=O)c3c2)C1 (stereo not drawn) [Example 46]	77%
CC(C)(C)OC(=O)N1CCN(Cc2ccc3onc(N4CCC(=O)NC4=O)c3c2)CC1(C)C [Example 91]	81%
C[C@@H]1CN(CC2COC2)CCN1Cc1ccc2onc(N3CCC(=O)NC3=O)c2c1 [Example 68]	83%

====

Molecular target: WIZ (Homo sapiens, UniProt O95785+Q96SW2)
Construct: expressed in transfected cells
Test: Quantification of WIZ protein levels in HiBit tag fusion protein assay (WIZ HiBit assay in 293T cells)
Type: cell-based
Conditions: HEK-293T, 100 minus Amax at 25 uM; read-out: % degradation of WIZ (100-Amax)
Entries and their Dmax at 25 µM values follow.

molecule	system_under_test	Dmax at 25 µM (%)
CC(C)(C)OC(=O)N1CCC(Cc2ccc3onc(N4CCC(=O)NC4=O)c3c2)C1 (stereo not drawn) [Example 47]	WIZ (Homo sapiens, UniProt O95785+Q96SW2)	85
C[C@@H]1CN(C)C[C@H](C)N1Cc1ccc2onc(N3CCC(=O)NC3=O)c2c1 [Example 108]	WIZ (Homo sapiens, UniProt O95785+Q96SW2)	69
COC[C@H]1CN(Cc2ccc3onc(N4CCC(=O)NC4=O)c3c2)CCN1C [Example 117]	WIZ (Homo sapiens, UniProt O95785+Q96SW2)	87
C[C@@H]1CN(S(=O)(=O)N2CCCC2)CCN1Cc1ccc2onc(N3CCC(=O)NC3=O)c2c1 [Example 74]	WIZ (Homo sapiens, UniProt O95785+Q96SW2)	76
CC(C)CN1CCN(Cc2ccc3onc(N4CCC(=O)NC4=O)c3c2)C[C@H]1C [Example 34]	WIZ (Homo sapiens, UniProt O95785+Q96SW2)	89
O=C1CCN(c2noc3ccc(CN4CCN5C(=O)COC[C@H]5C4)cc23)C(=O)N1 [Example 116]	WIZ (Homo sapiens, UniProt O95785+Q96SW2)	78
